Reference for the values: patent EP3722296B1

Biological target: c-KIT V654A kinase (Homo sapiens, UniProt P10721, V654A)
Construct: residues T544-V976 with N-terminal GST fusion
Sequence (P10721 544-976 V654A): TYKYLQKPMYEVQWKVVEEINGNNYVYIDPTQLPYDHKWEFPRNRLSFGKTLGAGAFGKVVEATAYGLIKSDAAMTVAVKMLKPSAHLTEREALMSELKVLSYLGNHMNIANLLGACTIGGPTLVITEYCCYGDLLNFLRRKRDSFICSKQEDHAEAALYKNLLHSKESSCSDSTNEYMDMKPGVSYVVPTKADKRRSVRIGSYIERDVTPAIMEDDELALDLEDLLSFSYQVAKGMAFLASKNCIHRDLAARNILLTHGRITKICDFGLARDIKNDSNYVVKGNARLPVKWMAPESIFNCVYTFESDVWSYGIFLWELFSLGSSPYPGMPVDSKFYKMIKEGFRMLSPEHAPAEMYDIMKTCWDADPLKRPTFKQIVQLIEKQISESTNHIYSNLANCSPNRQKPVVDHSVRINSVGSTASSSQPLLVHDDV
Assay: c-KIT V654A Kinase Assay
Details: enzymatic assay, ATP 200 µM
Procedure: In this assay, the oxidation of NADH (measured by decrease in absorbance at 340 nm) was continuously monitored spectrophotometrically. […] The inhibition reaction was started by mixing serial diluted test compound with the above reaction mixture. The absorption at 340 nm was monitored continuously for 6 hours at 30 °C on Synergy 2 plate reader (BioTech). The protein construct was prepared by deCODE Biostructures using procedures known in the art. […]
Each entry below lists one item and its recorded IC50 value.

Worked cases, IC50 given:
RECORD_SMILES: CCn1c(=O)c(-c2cc(NC(=O)Nc3ccc(F)c(CN4CCN(C)CC4)c3)c(F)cc2C)cc2cnc(NC=O)cc21
TESTED_SYSTEM: c-KIT V654A kinase (Homo sapiens, UniProt P10721, V654A)
OBSERVED_PROPERTY: IC50
EXPERIMENTAL_RESULT: 100 to 1000 nM
--
RECORD_SMILES: CCn1c(=O)c(-c2cc(NC(=O)Nc3cc(F)cc(F)c3)c(F)cc2Cl)cc2cnc(NC)cc21
TESTED_SYSTEM: c-KIT V654A kinase (Homo sapiens, UniProt P10721, V654A)
OBSERVED_PROPERTY: IC50
EXPERIMENTAL_RESULT: 10 to 100 nM
--
RECORD_SMILES: CCn1c(=O)c(-c2cc(NC(=O)Nc3ccccc3)c(F)cc2Cl)cc2cnc(NC(=O)N3CC(O)C3)cc21
TESTED_SYSTEM: c-KIT V654A kinase (Homo sapiens, UniProt P10721, V654A)
OBSERVED_PROPERTY: IC50
EXPERIMENTAL_RESULT: 10 to 100 nM
--
RECORD_SMILES: CCn1c(=O)c(-c2cc(NC(=O)Nc3ccc(F)cc3)c(F)cc2Cl)cc2cnc(NCCOC)cc21
TESTED_SYSTEM: c-KIT V654A kinase (Homo sapiens, UniProt P10721, V654A)
OBSERVED_PROPERTY: IC50
EXPERIMENTAL_RESULT: 10 to 100 nM
--
RECORD_SMILES: CNc1cc2c(cn1)cc(-c1cc(NC(=O)Nc3cccc(F)c3)c(F)cc1C)c(=O)n2C(C)C
TESTED_SYSTEM: c-KIT V654A kinase (Homo sapiens, UniProt P10721, V654A)
OBSERVED_PROPERTY: IC50
EXPERIMENTAL_RESULT: 10 to 100 nM
--
RECORD_SMILES: CCn1c(=O)c(-c2cc(NC(=O)Nc3cccc(F)c3)c(F)cc2Cl)cc2cnc(NCCOC)cc21
TESTED_SYSTEM: c-KIT V654A kinase (Homo sapiens, UniProt P10721, V654A)
OBSERVED_PROPERTY: IC50
EXPERIMENTAL_RESULT: < 10 nM
--
RECORD_SMILES: CCn1c(=O)c(-c2cc(NC(=O)Nc3ccccc3)c(F)cc2F)cc2cnc(NC)cc21
TESTED_SYSTEM: c-KIT V654A kinase (Homo sapiens, UniProt P10721, V654A)
OBSERVED_PROPERTY: IC50
EXPERIMENTAL_RESULT: < 10 nM
--
RECORD_SMILES: CCn1c(=O)c(-c2cc(NC(=O)Nc3ccccc3)c(F)cc2Br)cc2cnc(NC(=O)N(C)C)cc21
TESTED_SYSTEM: c-KIT V654A kinase (Homo sapiens, UniProt P10721, V654A)
OBSERVED_PROPERTY: IC50
EXPERIMENTAL_RESULT: 10 to 100 nM

Enquiry: Form field: IC50 recorded for CCn1c(=O)c(-c2cc(NC(=O)Nc3ccccc3)c(F)cc2Cl)cc2cnc(NC(=O)OC)cc21 with c-KIT V654A kinase (Homo sapiens, UniProt P10721, V654A) (enter value)
Return: 10 to 100 nM

Enquiry: Proceed to CCn1c(=O)c(-c2cc(NC(=O)Nc3csc4ccccc34)c(F)cc2C)cc2cnc(NC(=O)N(C)C)cc21
Return: 100 to 1000 nM

---

Quick reference: pIC50 of the listed items.
Target: c-KIT D816V kinase (Homo sapiens, UniProt P10721, D816V)
Construct: residues T544-V976 with N-terminal GST fusion
Sequence (P10721 544-976 D816V): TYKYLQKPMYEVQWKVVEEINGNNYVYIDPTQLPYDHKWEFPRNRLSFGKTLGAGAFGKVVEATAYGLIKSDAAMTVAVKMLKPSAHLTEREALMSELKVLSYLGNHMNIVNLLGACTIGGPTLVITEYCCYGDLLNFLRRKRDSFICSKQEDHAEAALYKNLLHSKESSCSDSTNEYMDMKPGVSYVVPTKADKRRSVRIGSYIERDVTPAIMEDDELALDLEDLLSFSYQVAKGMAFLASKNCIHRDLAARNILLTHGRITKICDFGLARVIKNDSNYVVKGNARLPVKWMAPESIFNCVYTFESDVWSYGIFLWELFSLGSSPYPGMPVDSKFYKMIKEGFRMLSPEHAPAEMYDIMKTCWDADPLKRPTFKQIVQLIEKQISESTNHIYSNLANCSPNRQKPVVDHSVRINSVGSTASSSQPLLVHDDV
Experiment: c-KIT D816V kinase Assay
Conditions: enzymatic assay, ATP 200 uM
pIC50: −log10 of the molar value.

Enquiry: Give its pIC50 value. Item: CCn1c(=O)c(-c2cc(NC(=O)Nc3cccc(F)c3)c(F)cc2Cl)cc2cnc(N)cc21 [Example 20]
Return: > 8.00

---

Target: c-KIT V654A kinase (Homo sapiens, UniProt P10721, V654A)
Construct: residues T544-V976 with N-terminal GST fusion
Assay: c-KIT V654A Kinase Assay
Settings: enzymatic assay, ATP 200 µM
pIC50: −log10 of the molar value.
pIC50 by entry:

RECORD_SMILES: CCn1c(=O)c(-c2cc(NC(=O)Nc3ccccc3)c(F)cc2Cl)cc2cnc(NC(=O)N3CC[C@@H](N(C)C)C3)cc21
pIC50: 6.00 to 7.00
--
RECORD_SMILES: CCn1c(=O)c(-c2cc(NC(=O)Nc3csc4ccccc34)c(F)cc2C)cc2cnc(NC)cc21
pIC50: 7.00 to 8.00
--
RECORD_SMILES: CCn1c(=O)c(-c2cc(NC(=O)Nc3cccc(F)c3)c(F)cc2C)cc2cnc(N)cc21
pIC50: > 8.00
--
RECORD_SMILES: CCn1c(=O)c(-c2cc(NC(=O)Nc3ccccc3)ccc2Cl)cc2cnc(NC)cc21
pIC50: > 8.00
--
RECORD_SMILES: CCn1c(=O)c(-c2cc(NC(=O)Nc3cc(F)cc(F)c3)c(F)cc2F)cc2cnc(NC)cc21
pIC50: > 8.00

Enquiry: Item under review: CCn1c(=O)c(-c2cc(NC(=O)Nc3cc(C)cc(F)c3)c(F)cc2Cl)cc2cnc(NC)cc21 . Reported pIC50?
Return: 6.00 to 7.00

Enquiry: Queued: CCn1c(=O)c(-c2cc(NC(=O)Nc3csc4ccccc34)c(F)cc2Cl)cc2cnc(NC)cc21
Return: 7.00 to 8.00

Enquiry: Now consider CCn1c(=O)c(-c2cc(NC(=O)Nc3cccc(F)c3)c(F)cc2C)cc2cnc(NC)cc21 and answer again.
Return: 7.00 to 8.00

Enquiry: Field entry: CCn1c(=O)c(-c2cc(NC(=O)Nc3ccc(F)c(CN4CCN(C)CC4)c3)c(F)cc2C)cc2cnc(N)cc21
Return: 6.00 to 7.00

Enquiry: Ok, now CCn1c(=O)c(-c2cc(NC(=O)Nc3ccccc3)c(F)cc2C)cc2cnc(NCCOC)cc21
Return: 7.00 to 8.00

Enquiry: One more molecule: CCn1c(=O)c(-c2cc(NC(=O)Nc3cc(F)cc(F)c3)c(F)cc2C)cc2cnc(NC)cc21
Return: 7.00 to 8.00

Enquiry: What do you have for CNc1cc2c(cn1)cc(-c1cc(NC(=O)Nc3cccc(F)c3)c(F)cc1F)c(=O)n2C(C)C ?
Return: 7.00 to 8.00

Enquiry: Lookup CCn1c(=O)c(-c2cc(NC(=O)Nc3cccc(F)c3)c(F)cc2Br)cc2cnc(NC)cc21
Return: 7.00 to 8.00

Enquiry: Another: CCn1c(=O)c(-c2cc(NC(=O)Nc3ccccc3)c(F)cc2Br)cc2cnc(NCCOC)cc21
Return: 7.00 to 8.00

Enquiry: Follow-up entry: CCn1c(=O)c(-c2cc(NC(=O)Nc3cccc(F)c3)c(F)cc2Cl)cc2cnc(NC)cc21
Return: > 8.00

Enquiry: Lookup CCn1c(=O)c(-c2cc(NC(=O)Nc3ccccc3)c(F)cc2Cl)cc2cnc(NC(=O)N3CC[C@H](N(C)C)C3)cc21
Return: 7.00 to 8.00

Enquiry: CCn1c(=O)c(-c2cc(NC(=O)Nc3cccc(C#N)c3)c(F)cc2Cl)cc2cnc(NC)cc21 ?
Return: 7.00 to 8.00

Enquiry: # iterate: CCn1c(=O)c(-c2cc(NC(=O)Nc3ccccc3)c(F)cc2C)cc2cnc(NC(=O)N3CC(N(C)C)C3)cc21
Return: 6.00 to 7.00

Enquiry: Another molecule: CCn1c(=O)c(-c2cc(NC(=O)Nc3cccc(F)c3)c(F)cc2C)cc2cnc(NC3CC3)cc21
Return: 7.00 to 8.00

---

Molecular target: c-KIT D816V kinase (Homo sapiens, UniProt P10721, D816V)
Construct: residues T544-V976 with N-terminal GST fusion
Experiment: c-KIT D816V kinase Assay
Conditions: enzymatic assay, ATP 200 uM
pIC50: −log10 of the molar value.
OBSERVED_PROPERTY: pIC50

RECORD_SMILES: CCn1c(=O)c(-c2cc(NC(=O)Nc3ccccc3)c(F)cc2Cl)cc2cnc(NC(=O)OC)cc21
pIC50: > 8.00

RECORD_SMILES: CCn1c(=O)c(-c2cc(NC(=O)Nc3ccccc3)c(F)cc2Cl)cc2cnc(NCCOC)cc21
pIC50: 7.00 to 8.00

RECORD_SMILES: CCn1c(=O)c(-c2cc(NC(=O)Nc3ccccc3)c(F)cc2C)cc2cnc(NC(=O)N3CC(N(C)C)C3)cc21
pIC50: 7.00 to 8.00

RECORD_SMILES: CCn1c(=O)c(-c2cc(NC(=O)Nc3cccc(C#N)c3)c(F)cc2F)cc2cnc(NC)cc21
pIC50: 6.00 to 7.00

RECORD_SMILES: CCn1c(=O)c(-c2cc(NC(=O)Nc3cccc4ccccc34)c(F)cc2Cl)cc2cnc(NC)cc21
pIC50: 7.00 to 8.00

RECORD_SMILES: CCn1c(=O)c(-c2cc(NC(=O)Nc3ccc(F)cc3)c(F)cc2Cl)cc2cnc(NCCOC)cc21
pIC50: 7.00 to 8.00

RECORD_SMILES: CCn1c(=O)c(-c2cc(NC(=O)Nc3ccccc3)c(F)cc2Cl)cc2cnc(NC(=O)N3CC(O)C3)cc21
pIC50: 7.00 to 8.00

RECORD_SMILES: CCn1c(=O)c(-c2cc(NC(=O)Nc3cc(F)cc(F)c3)c(F)cc2Cl)cc2cnc(NC(C)=O)cc21
pIC50: > 8.00

RECORD_SMILES: CCn1c(=O)c(-c2cc(NC(=O)Nc3ccccc3)c(F)cc2Br)cc2cnc(NC(=O)N(C)C)cc21
pIC50: 7.00 to 8.00

RECORD_SMILES: CNc1cc2c(cn1)cc(-c1cc(NC(=O)Nc3cccc(F)c3F)c(F)cc1Cl)c(=O)n2C
pIC50: 7.00 to 8.00

Enquiry: For CCn1c(=O)c(-c2cc(NC(=O)Nc3cccc(F)c3F)c(F)cc2Cl)cc2cnc(NC)cc21 , what is its reported pIC50?
Return: 7.00 to 8.00

Enquiry: Follow-up entry: CCn1c(=O)c(-c2cc(NC(=O)Nc3cccc(CN4CCN(C)CC4)c3)c(F)cc2C)cc2cnc(NC)cc21
Return: 6.00 to 7.00

Enquiry: // same read-out, input: CCn1c(=O)c(-c2cc(NC(=O)Nc3ccccc3)c(F)cc2Cl)cc2cnc(NC(=O)N3CC[C@H](N(C)C)C3)cc21
Return: 7.00 to 8.00
